Cited source for all entries: patent EP4786492A1

- target_under_test: human DLL3 protein expressed on CHO-K1 recombinant cells (human DLL3 extracellular segment fused to EpCAM transmembrane and intracellular regions) (human) (UniProt Q9NYJ7)
- Sequence (Q9NYJ7 other isoform, or with tags, fused parts or gaps limits assumed): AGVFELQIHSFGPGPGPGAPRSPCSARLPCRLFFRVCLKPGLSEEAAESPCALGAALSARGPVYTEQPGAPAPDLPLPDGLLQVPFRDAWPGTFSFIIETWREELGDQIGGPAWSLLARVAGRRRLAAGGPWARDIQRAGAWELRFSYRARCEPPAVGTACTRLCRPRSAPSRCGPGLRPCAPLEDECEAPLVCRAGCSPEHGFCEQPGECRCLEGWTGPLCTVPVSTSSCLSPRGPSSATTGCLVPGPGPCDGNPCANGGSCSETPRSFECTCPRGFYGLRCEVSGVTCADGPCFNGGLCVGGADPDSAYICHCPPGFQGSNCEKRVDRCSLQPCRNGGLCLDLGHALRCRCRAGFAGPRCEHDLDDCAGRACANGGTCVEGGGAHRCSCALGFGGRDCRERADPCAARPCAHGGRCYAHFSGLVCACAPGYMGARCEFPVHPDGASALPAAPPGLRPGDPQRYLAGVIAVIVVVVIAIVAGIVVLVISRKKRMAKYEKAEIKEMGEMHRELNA
- assay_comment: FACS, CHO-K1 hDLL3 cells, 0.032 nM antibody
quantity_kind: MFI

Query: Using known records, supply MFI for Hab015VL4VH6a-hFc (scFv, part only; not given: scFv linker and human IgG1 Fc, V domains shown, not shown: another chain or arm of the molecule; a dimerising Fc or GST; small tags and cut ends) VL: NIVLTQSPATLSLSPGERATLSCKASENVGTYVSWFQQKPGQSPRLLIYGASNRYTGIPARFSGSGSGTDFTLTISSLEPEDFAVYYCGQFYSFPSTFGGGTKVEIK VH: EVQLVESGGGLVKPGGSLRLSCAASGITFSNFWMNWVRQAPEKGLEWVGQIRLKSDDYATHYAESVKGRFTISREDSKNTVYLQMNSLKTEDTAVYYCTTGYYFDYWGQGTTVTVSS
Result: 265 MFI
